Values were extracted from PubChem BioAssay (NCI).

Tested on: HCC-2998 colon
Assay: NCI tumour cell line growth inhibition, 384-well format; in the data active = GI50 below about 0.43 µM; inactive = the rest
Could you please pick one outcome from this set? True (active), False (inactive)

[ask] Please share the test call associated with Cc1cc(-c2ccc(C3C(C#N)=C(N)Oc4c3c(=O)oc3ccccc43)cc2)cnc1F (centres undefined) .
[reply] False

[ask] And for Cc1cnc(NC2CCOCC2)nc1-n1cnc(C(=O)N[C@H](CN)c2cc(F)cc(Cl)c2)c1 ?
[reply] True

[ask] And for O=C(C1CC1)N1CC[C@@H](Cc2n[nH]c(=O)n2-c2ccc(-c3ccc4occc4c3)cc2)C1 ?
[reply] False

[ask] And for CNC[C@@H](NC(=O)c1ccc(-c2nc([C@H]3CC[C@H](O)[C@@H](F)C3)cnc2N)cc1F)c1cc(F)cc(Br)c1 ?
[reply] False

---

Exercise: for every item that follows, state its recorded GI50.
Test system: NCI-H322M lung
Assay: NCI tumour cell line growth inhibition, 384-well format

[ask] Requested read-out: GI50. Entry: O=C(C1CC1)N1CC[C@@H](Cc2n[nH]c(=O)n2-c2ccc(-c3ccc4occc4c3)cc2)C1
[reply] 36.2 µM

[ask] And for CNC[C@@H](NC(=O)c1ccc(-c2nc([C@H]3CC[C@H](O)[C@@H](F)C3)cnc2N)cc1F)c1cc(F)cc(Br)c1 ?
[reply] 18.7 µM

[ask] And for Cc1cc(-c2ccc(C3C(C#N)=C(N)Oc4c3c(=O)oc3ccccc43)cc2)cnc1F (centres undefined) ?
[reply] 25.4 µM

[ask] And for NC1(c2ccc(-c3nc4ccn5c(=O)[nH]nc5c4cc3-c3ccccc3)cc2)CCC1 ?
[reply] 2.44 µM

---

System: NCI-H23 lung
Test: NCI tumour cell line growth inhibition, 384-well format
OBSERVABLE: TGI (µM)
Answer with a number only, understood to be in µM.

[ask] Requested read-out: TGI. Entry: CO[C@H]1C[C@@H]2CC[C@@H](C)[C@@](O)(O2)C(=O)C(=O)N2CCCC[C@H]2C(=O)O[C@H]([C@H](C)C[C@@H]2CC[C@@H](O)[C@H](OC)C2)CC(=O)[C@H](C)C=C(C)[C@@H](O)[C@@H](OC)C(=O)[C@H](C)C[C@H](C)/C=C/C=C/C=C1C
[reply] 24.8

[ask] And for NC1(c2ccc(-c3nc4ccn5c(=O)[nH]nc5c4cc3-c3ccccc3)cc2)CCC1 ?
[reply] 7.48

[ask] And for CNC[C@@H](NC(=O)c1ccc(-c2nc([C@H]3CC[C@H](O)[C@@H](F)C3)cnc2N)cc1F)c1cc(F)cc(Br)c1 ?
[reply] 36.9

---

As an illustration, consider measured GI50 for compounds on MDA-MB-435 melanoma.

[ask] Lab note: need GI50 with MDA-MB-435 melanoma for entry Cc1cc(-c2ccc(C3C(C#N)=C(N)Oc4c3c(=O)oc3ccccc43)cc2)cnc1F (centres undefined) , please look it up.
[reply] 89 µM

[ask] And for O=C(C1CC1)N1CC[C@@H](Cc2n[nH]c(=O)n2-c2ccc(-c3ccc4occc4c3)cc2)C1 ?
[reply] 31.2 µM

[ask] And for NC1(c2ccc(-c3nc4ccn5c(=O)[nH]nc5c4cc3-c3ccccc3)cc2)CCC1 ?
[reply] 2.36 µM

[ask] And for CO[C@H]1C[C@@H]2CC[C@@H](C)[C@@](O)(O2)C(=O)C(=O)N2CCCC[C@H]2C(=O)O[C@H]([C@H](C)C[C@@H]2CC[C@@H](O)[C@H](OC)C2)CC(=O)[C@H](C)C=C(C)[C@@H](O)[C@@H](OC)C(=O)[C@H](C)C[C@H](C)/C=C/C=C/C=C1C ?
[reply] 11.6 µM
